The reported numbers originate from patent US12522576B2.

- Experiment Notes: D9 solubility in the liquors at isolation temperature
- Type: physicochemical
- Cond: crystallisation liquors over suspended solid, 25 °C, organic solvent or mixture, thermodynamic from solid, batch 5; Anisole/MeOH (1:9); seed E/G; heat T 50; isolation T 25; 9.4 mL/g; SP 3
Attribute Measured: solubility (µg/mL)
Report the value in µg/mL with no unit label.

Query: Tell me the measured solubility of CCCCCc1cc(OC(=O)c2ccc3ccccc3c2)c2c(c1)OC(C)(C)[C@@H]1CCC(C)=C[C@@H]21 [Form G] , please.
Reply: 8100

* * *

- Experiment Notes: D9 solubility in the liquors at isolation temperature
- Assay type: physicochemical
- Cond: liquors of the equilibrated crystallisation suspension, 25 °C, organic solvent or mixture, thermodynamic from solid, Toluene/MeOH (1:9); isolation 25 °C; SP 17; 15.0 mL/g; read-out: D9 Solubility at Isolation T
Attribute Measured: solubility

Query: Consider the compound CCCCCc1cc(OC(=O)c2ccc3ccccc3c2)c2c(c1)OC(C)(C)[C@@H]1CCC(C)=C[C@@H]21 [Form H] and give its measured solubility.
Reply: 6800 µg/mL
